Recorded folding stability dG by entry
B1: EHEE_rd2_0191 (parent)
chain: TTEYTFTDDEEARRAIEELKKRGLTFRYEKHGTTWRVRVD

Variants of: B1
Assay: folding stability dG (cDNA display proteolysis); higher = more stable
Details: PBS, room temperature
Property label: folding stability dG (kcal/mol)

[[record]]
query_sequence = "TTEYTFTQDEEARRAIEELKKRGLTFRYEKHGTTWRVRVD [D8Q]"
unit_name = "kcal/mol"
result_value = 1.16

[[record]]
query_sequence = "TTEYTFTDDEEARRAIEELKKRGLTFRYEKQGTTWRVRVD [H31Q]"
unit_name = "kcal/mol"
result_value = 2.21

[[record]]
query_sequence = "TTEYCFTDDEEARRAIEELKKRGLTFRYEKHGTTWRVRVD [T5C]"
unit_name = "kcal/mol"
result_value = 2.33

[[record]]
query_sequence = "TTEYTFTDDEVARRAIEELKKRGLTFRYEKHGTTWRVRVD [E11V]"
unit_name = "kcal/mol"
result_value = 1.85

[[record]]
query_sequence = "TTEYTFTDDEEARRAIEELGKRGLTFRYEKHGTTWRVRVD [K20G]"
unit_name = "kcal/mol"
result_value = 1.41

[[record]]
query_sequence = "TTEYTFTDDREARRAIEELKKRGLTFRYEKHGTTWRVRVD [E10R]"
unit_name = "kcal/mol"
result_value = 1.99

[[record]]
query_sequence = "TFEYTFTDDEEARRAIEELKKRGLTFRYEKHGTTWRVRVD [T2F]"
unit_name = "kcal/mol"
result_value = 2.33

[[record]]
query_sequence = "TTEYTFTDDEEARRAIEELKKRLLTFRYEKHGTTWRVRVD [G23L]"
unit_name = "kcal/mol"
result_value = 0.596

[[record]]
query_sequence = "TTEYTFTDDEEARRFIEELKKRGLTFRYEKHGTTWRVRVD [A15F]"
unit_name = "kcal/mol"
result_value = 4.89

[[record]]
query_sequence = "TTEYTFTADEEARRAIEELKKRGLTFRYEKHGTTWRVRVD [D8A]"
unit_name = "kcal/mol"
result_value = 1.24

[[record]]
query_sequence = "TTEYTFTDDEEARRAIEELKKRGLTFRYEKHGTTWRVFVD [R38F]"
unit_name = "kcal/mol"
result_value = 3.61

[[record]]
query_sequence = "TTEYTFHDDEEARRAIEELKKRGLTFRYEKHGTTWRVRVD [T7H]"
unit_name = "kcal/mol"
result_value = 2.13

[[record]]
query_sequence = "TTEYTFDDDEEARRAIEELKKRGLTFRYEKHGTTWRVRVD [T7D]"
unit_name = "kcal/mol"
result_value = 1.97

[[record]]
query_sequence = "TTAYTFTDDEEARRAIEELKKRGLTFRYEKHGTTWRVRVD [E3A]"
unit_name = "kcal/mol"
result_value = 1.12

[[record]]
query_sequence = "TTEYTFPDDEEARRAIEELKKRGLTFRYEKHGTTWRVRVD [T7P]"
unit_name = "kcal/mol"
result_value = 0.677

[[record]]
query_sequence = "TTEYTFTDDEEARRCIEELKKRGLTFRYEKHGTTWRVRVD [A15C]"
unit_name = "kcal/mol"
result_value = 3.17

[[record]]
query_sequence = "TTEYTFTDDEEARRAIEEMKKRGLTFRYEKHGTTWRVRVD [L19M]"
unit_name = "kcal/mol"
result_value = 1.73

[[record]]
query_sequence = "TTEYTFTDDEEARRAIEELKKRGLTFQYEKHGTTWRVRVD [R27Q]"
unit_name = "kcal/mol"
result_value = 2.25

[[record]]
query_sequence = "TTEYTFTDDEEARRAIEELKKRGLTFRYEKHRTTWRVRVD [G32R]"
unit_name = "kcal/mol"
result_value = 0.119

[[record]]
query_sequence = "TTEKTFTDDEEARRAIEELKKRGLTFRYEKHGTTWRVRVD [Y4K]"
unit_name = "kcal/mol"
result_value = 0.122

[[record]]
query_sequence = "TTEYTFTDDEEARAAIEELKKRGLTFRYEKHGTTWRVRVD [R14A]"
unit_name = "kcal/mol"
result_value = 2.1

[[record]]
query_sequence = "TTEYTFTDDEEARRAIEELKKRGLTFRYEKHGTTNRVRVD [W35N]"
unit_name = "kcal/mol"
result_value = -0.839

[[record]]
query_sequence = "TTEYTFTDDEEARRAIEELNKRGLTFRYEKHGTTWRVRVD [K20N]"
unit_name = "kcal/mol"
result_value = 1.54

[[record]]
query_sequence = "TTEYTFTDDEEARRAIEELFKRGLTFRYEKHGTTWRVRVD [K20F]"
unit_name = "kcal/mol"
result_value = 2.02

[[record]]
query_sequence = "TTEYTFTDDEEARRAILELKKRGLTFRYEKHGTTWRVRVD [E17L]"
unit_name = "kcal/mol"
result_value = 2.11

[[record]]
query_sequence = "TTEYTFTDDEEARRAIEELKKRGLTFRYLKHGTTWRVRVD [E29L]"
unit_name = "kcal/mol"
result_value = 1.71

[[record]]
query_sequence = "TTEYTFTDDEEARRAIEELKKFGLTFRYEKHGTTWRVRVD [R22F]"
unit_name = "kcal/mol"
result_value = 1.55

[[record]]
query_sequence = "TTEYTFTVDEEARRAIEELKKRGLTFRYEKHGTTWRVRVD [D8V]"
unit_name = "kcal/mol"
result_value = 1.36

[[record]]
query_sequence = "TTEYTFTDDEECRRAIEELKKRGLTFRYEKHGTTWRVRVD [A12C]"
unit_name = "kcal/mol"
result_value = 2.13

[[record]]
query_sequence = "TTEYTFTDDEEARRAIEELKKRGLTFRYEKHGKTWRVRVD [T33K]"
unit_name = "kcal/mol"
result_value = 2.01

[[record]]
query_sequence = "TTEYTFTDDEEAWRAIEELKKRGLTFRYEKHGTTWRVRVD [R13W]"
unit_name = "kcal/mol"
result_value = 2.52

